Molecular target: PAR-1 receptor (Cricetulus griseus)
Construct: Chinese hamster ovarian (CHO) cells constituently express PAR-1 receptor; endogenous in cells; host or cells: CHO cells
Sequence (A0A8C2QJ57 22-428): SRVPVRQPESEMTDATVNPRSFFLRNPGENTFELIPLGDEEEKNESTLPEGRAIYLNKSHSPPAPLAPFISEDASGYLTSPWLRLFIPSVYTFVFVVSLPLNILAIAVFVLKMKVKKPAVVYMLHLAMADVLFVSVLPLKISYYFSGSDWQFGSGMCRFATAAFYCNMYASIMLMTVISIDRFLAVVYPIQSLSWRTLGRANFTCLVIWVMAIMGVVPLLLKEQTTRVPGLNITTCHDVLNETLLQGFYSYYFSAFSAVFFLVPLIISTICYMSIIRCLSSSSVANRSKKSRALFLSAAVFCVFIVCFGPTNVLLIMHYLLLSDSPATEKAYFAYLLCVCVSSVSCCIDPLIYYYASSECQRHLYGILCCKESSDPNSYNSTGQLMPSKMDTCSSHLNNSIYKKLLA
Experiment: Antagonism of SFLLR-induced calcium release in CHO cells (FLIPR, Fluo-3AM)
Format: cell-based, Chinese hamster
Settings: agonist SFLLR-NH2, Arunlakshana and Schild method from EC50 shifts at three antagonist concentrations
measured_parameter: pA2

1. O=C(C=Cc1ccccc1[N+](=O)[O-])N1CCN(Cc2ccc(F)cc2)CC1 :: 6.98
2. Cc1ccc(CN2CCN(C(=O)C=Cc3ccccc3Cl)CC2)cc1 :: 6.05
3. O=C(C=Cc1ccccc1F)N1CCN(Cc2ccc(F)cc2)CC1 :: 6.50
4. Cc1cccc(CN2CCN(C(=O)C=Cc3c(F)cccc3F)CC2)c1 :: 6.46
5. O=C(C=Cc1c(F)cccc1F)N1CCN(Cc2ccc(F)c(F)c2)CC1 :: 6.32
6. O=C(C=Cc1ccccc1Br)N1CCN(Cc2ccc(F)cc2)CC1 :: 6.36
7. O=C(C=Cc1ccccc1Cl)N1CCN(Cc2ccccc2F)CC1 :: 6.39
